Test system: Calu-6
ASSAY_PROCEDURE: relative viability (nuclei count vs DMSO), 5 days (fraction); higher = more cells survive
EXPERIMENTAL_CONTEXT: first compound 0.03162 µM
Measured relative viability values are reported for all entries that follow.

- COMPOUND: "CCN(CC)CCCCNc1ncc2cc(-c3cc(OC)cc(OC)c3)c(NC(=O)NC(C)(C)C)nc2n1 + C[C@@H](Oc1cc(-c2cnn(C3CCNCC3)c2)cnc1N)c1c(Cl)ccc(F)c1Cl [Crizotinib] (partner 1 µM)"
  SYSTEM_NAME: "Calu-6"
  relative viability: 0.784
- COMPOUND: "CCN(CC)CCCCNc1ncc2cc(-c3cc(OC)cc(OC)c3)c(NC(=O)NC(C)(C)C)nc2n1 + C[C@]1(O)C[C@@H](c2nc(-c3ccc4ccc(-c5ccccc5)nc4c3)c3c(N)nccn32)C1 [Linsitinib] (partner 1 µM)"
  SYSTEM_NAME: "Calu-6"
  relative viability: 0.946
- COMPOUND: "O=c1cc(N2CCOCC2)oc2c(-c3cccc4c3sc3ccccc34)cccc12 + CC1(C)CCC(c2ccc(Cl)cc2)=C(CN2CCN(c3ccc(C(=O)NS(=O)(=O)c4ccc(N[C@H](CCN5CCOCC5)CSc5ccccc5)c(S(=O)(=O)C(F)(F)F)c4)cc3)CC2)C1 [Navitoclax] (partner 0.5 µM)"
  SYSTEM_NAME: "Calu-6"
  relative viability: 0.786
- COMPOUND: "CCN(CC)CCCCNc1ncc2cc(-c3cc(OC)cc(OC)c3)c(NC(=O)NC(C)(C)C)nc2n1 + CC1(C)CCC(c2ccc(Cl)cc2)=C(CN2CCN(c3ccc(C(=O)NS(=O)(=O)c4ccc(N[C@H](CCN5CCOCC5)CSc5ccccc5)c(S(=O)(=O)C(F)(F)F)c4)cc3)CC2)C1 [Navitoclax] (partner 0.5 µM)"
  SYSTEM_NAME: "Calu-6"
  relative viability: 0.946
- COMPOUND: "O=c1cc(N2CCOCC2)oc2c(-c3cccc4c3sc3ccccc34)cccc12 + COc1cc2c(Oc3ccc(NC(=O)C4(C(=O)Nc5ccc(F)cc5)CC4)cc3F)ccnc2cc1OCCCN1CCOCC1 [Foretinib] (partner 0.25 µM)"
  SYSTEM_NAME: "Calu-6"
  relative viability: 0.895
